From: PubChem BioAssay (NCI)

# Tested on: SNB-75 CNS
# Measurement Description: NCI tumour cell line growth inhibition, 48 h
Reported Property: TGI (µM)
Give bare numbers, in µM.

Cc1cc(NCCCCNc2ccnc3cc(Cl)ccc23)nc(Nc2ccc(C(=O)N3CCCCC3)cc2)n1; 3.29

Turning to the following compound.
Request: Which TGI value is on record for CC(C)(C)c1cc(C(=O)/C=C/c2ccc(C(=O)O)cc2)cc(C(C)(C)C)c1 ?
Response: 15

====

# Tested on: PC-3 prostate
# Measurement Description: NCI tumour cell line growth inhibition, 48 h
Reported Property: TGI (µM)
Numbers only, in µM.

CCCCC1Cc2cc(O)ccc2-c2nc3cc(O)ccc3n21 (centres undefined) (tested in a mixture with another compound); 53.3
O=C(Nc1ccc(Cl)cc1)Nc1nccs1; 40.3
O=[N+]([O-])c1ccc(Sc2c3ccccc3nc3ccccc23)cn1; 38.1

Request: Which TGI value is on record for O=C1CC(=O)NC(=NN2C(=O)/C(=C/c3ccc(Cl)c(Cl)c3)N=C2c2ccccc2)N1 ?
Response: 72.7

====

# Test system: CAKI-1 renal
# Measurement Description: NCI tumour cell line growth inhibition, 48 h
Assignment: determine reported TGI for the given compounds.

Give TGI for each listed item.
1. c1ccc2c(c1)OCCOCCOc1ccccc1OCCO2
2. COCn1cnc2c(=O)nc(SC)n(-c3ccccc3)c21
3. CC(C)(C)OC(=O)N1C2CCCC23O[C@@H]1c1cc2c(cc1C3=O)OCO2 (stereo partly specified)
4. O=[N+]([O-])c1c(F)c(F)c2c(c1F)N(CCCCCl)c1ccccc1S2

Response:
1: > 100 µM; 2: > 100 µM; 3: 87.1 µM; 4: 19.3 µM

====

# System: EKVX NSCLC
# Measurement Description: NCI tumour cell line growth inhibition, 48 h; in the data active means GI50 below about 0.43 µM; inactive means the rest
Outcomes you can answer with include only these: active, inactive

Some solved cases for reference:
Cc1cc(NCCCCNc2ccnc3cc(Cl)ccc23)nc(Nc2ccc(C(=O)N3CCCCC3)cc2)n1; inactive
CNC(C)[C@H]1CCC2C3CC=C4C(=O)[C@@H](NC(=O)C=C(C)C)CC[C@]4(C)C3CC[C@@]21C (some centres undefined); inactive
CCC[CH2][Sn]1([CH2]CCC)[O]CC(COc2c(Cl)cc(Cl)cc2Cl)[O]1 (centres undefined); inactive
CN1C(NNC(=O)c2cccnc2)=NS(=O)(=O)c2cc(Cl)ccc21; inactive
C=C(C)[C@@H]1CC[C@]2(C)[C@H](CC[C@@H]3[C@@H]([C@@](C)(O)CCC=C(C)C)CC[C@]32C)[C@@]1(C)CCC(=O)O; inactive

Request: Call for entry COc1cc(C(=O)O[C@H](C(N)=O)[C@]2(C)CO2)c2cccc(C)c2c1 :
Response: active

Request: Call for entry COc1cc(/C=C/C(=O)C(C(=O)/C=C/c2ccc(OC(=O)CCNC34CC5CC(CC(C5)C3)C4)c(OC)c2)C(=O)CCNC23CC4CC(CC(C4)C2)C3)ccc1OC(=O)CCNC12CC3CC(CC(C3)C1)C2 (centres undefined) :
Response: inactive

Request: Call for entry NC(=O)CNc1ccc([As]=[As]c2ccc(NCC(N)=O)cc2)cc1 (centres undefined) :
Response: inactive

Request: Call for entry NCCN.O=C([O-])[O-].O=C([O-])[O-].[Co+3].[K+] :
Response: inactive

====

# Test system: UACC-62 melanoma
# Measurement Description: NCI tumour cell line growth inhibition, 48 h
Reported Property: TGI (µM)
One number for each entry, in µM.

Below are worked cases with known answers.
O=C1C(Br)=CC2(C=C1Br)CCNC1=C2C(=O)c2ncccc2C1=O; 1.84
CN(C)CCNC(=O)c1cccc2[nH]c(-c3ccccn3)nc12; 42.7
CCC1CC(O)c2c(O)c3c(c(O)c2C1O)C(=O)c1cccc(O)c1C3=O (stereo not drawn) (tested in a mixture with another compound); 0.0396
CCCCCCc1cc2cc(C(=O)Nc3ccc(F)cc3)c(=N)oc2cc1O; 8.7
O=C(CCN1CCOCC1)Nc1cccc(-n2cc(-c3ccncc3)c(-c3ccc(Cl)c(O)c3)n2)c1; 13.6
O=C(CBr)c1ccc2cc(Br)c3ccccc3c2c1; 29.8
COc1ccc(-c2cc(Nc3ccnc(N4CCOCC4)n3)on2)cc1; 15.9
COCCn1cnc2c(Cl)nc(Nc3ccccc3)nc21; 85.1

Give TGI for each listed item.
1. CCCn1cnc2c(SCc3ccc(Cl)cc3)nc(N)nc21
2. CNC(C)[C@H]1CCC2C3CC=C4C(=O)[C@@H](NC(=O)C=C(C)C)CC[C@]4(C)C3CC[C@@]21C (stereo partly drawn)

Response:
[52.8, 3.54]

====

# Test system: HT29 colon
# Measurement Description: NCI tumour cell line growth inhibition, 48 h
Assignment: determine reported TGI for the given compounds.

Give TGI for each listed item.
1. CCOc1cc(NC(C)=O)ccc1C(=O)NNS(=O)(=O)c1ccc(NC(C)=O)cc1
2. Cc1nc2ccc(S(=O)(=O)Nc3nccs3)cc2c(=O)n1NS(=O)(=O)c1nccs1
3. CCOP(=O)(OCC)/C(C#N)=C/c1ccc(-c2cc(C(F)(F)F)cc(C(F)(F)F)c2)o1
4. CCc1nc(Cl)c(Cl)c(Cl)n1
5. NC(=O)c1cn(Cc2ccccc2)c(=O)n1Cc1ccccc1
6. Cc1c2c(C(N)=O)nccc2c(C)c2c1c1ccccc1n2Cc1ccccc1
7. CC(=O)c1c(N=[N+]=[N-])c2cccc3c2n(c1=O)CCC3
8. CC1(C)O[C@H]2OC(CO)C(N=[N+]=[N-])[C@H]2O1 (stereo partly specified)

Response:
1. > 100 µM
2. > 100 µM
3. 21.9 µM
4. > 100 µM
5. > 100 µM
6. 37.1 µM
7. 35.5 µM
8. > 100 µM

Give TGI for each listed item.
1. CC1COS(=O)O1 (stereo unspecified)
2. NCCN.O=C([O-])[O-].O=C([O-])[O-].[Co+3].[K+]
3. CN(C)CCCNc1ccc2ncn3c4ccc(O)cc4c(=O)c1c23

Response:
1. > 100 µM
2. > 100 µM
3. 12.9 µM

====

# Tested on: ACHN renal
# Measurement Description: NCI tumour cell line growth inhibition, 48 h
Assignment: determine reported TGI for the given compounds.

O=[N+]([O-])c1c(F)c(F)c2c(c1F)N(CCCCCl)c1ccccc1S2; 30.4 µM
NC(CCc1ncc(C(=O)O)s1)C(=O)O (stereo not given); > 100 µM
COc1cc2c3c(n(CCCN(C)CCO)c(=O)c2cc1OC)-c1cc2c(cc1C3=O)OCO2; 4.33 µM
C=C1CC[C@H]2C(=O)OC(c3ccoc3)C[C@]2(C)C/C=C\C=C/1C(=O)OC (stereo not given in full); > 25 µM
NCCCNCCCCN1CCOC1=O; > 100 µM

Give TGI for each listed item.
1. COc1cc(-c2nnc3n2NC=C(C(=O)O)S3)cc(OC)c1OC
2. Nc1ccc(C2=N/C(=C\c3cccc(N)c3)C(=O)O2)cc1
3. CS(=O)(=O)N1CC(CCl)c2ccc(O)cc21 (stereo not given)
4. N#Cc1c(-c2ccco2)cc(-c2ccc(N)cc2)[nH]c1=O
5. Cc1ccc(S(=O)(=O)C2=C(C(C)C)N=NC2(C)C)cc1

Response:
> 100 µM
> 100 µM
12.4 µM
> 100 µM
> 100 µM

Give TGI for each listed item.
1. Cc1sc2c(c1C)C(c1ccc(Cl)cc1)=N[C@@H](CC(=O)Nc1ccc(OCCOCCOCCOCCNc3cccc4c3C(=O)N(C3CCC(=O)NC3=O)C4=O)cc1)c1nnc(C)n1-2 (stereo not given in full)
2. Cn1cc(-c2csc(-c3cn(C)c4ccc(F)cc34)n2)c2cnccc21
3. CSc1ccc2c(cc1=O)[C@@H](NC(=O)c1cc(O)c(O)c(O)c1)CCc1cc(O)c(O)c(O)c1-2
4. COc1ccc(/C(Cl)=C(\C#N)c2ccc(OC)c(OC)c2)cc1OC

Response:
1: > 100 µM; 2: 3.26 µM; 3: > 100 µM; 4: > 100 µM

Give TGI for each listed item.
1. O=c1cc(NNc2cccc(Cl)c2)[nH]c(=O)[nH]1
2. COC(=O)[C@@H](NC(=O)N(Cc1ccccc1)C[C@H](CC(C)C)NC(=O)[C@@H](NC(=O)OC(C)(C)C)C(C)C)C(C)C
3. COc1cc(/C=C/C(=O)Oc2ccccc2)ccc1C(=O)O/C=C/c1ccccc1
4. C=C(C)[C@@H]1CC[C@]2(C)[C@H](CC[C@@H]3[C@@H]([C@@](C)(O)CCC=C(C)C)CC[C@]32C)[C@@]1(C)CCC(=O)O
5. CC(=O)O[C@]12CCCCCC1C1(O)C(O)CCCCC12 (stereo not given in full)

Response:
1. > 100 µM
2. > 100 µM
3. > 100 µM
4. 54.3 µM
5. > 100 µM

Request: Which TGI value is on record for CCCCCCCCCCCC(=O)OC[C@@H](C[As](=O)(O)O)OC(=O)CCCCCCCCCCC ?
Response: 10.4 µM
